test system: Mycobacterium tuberculosis; experiment: Antimicrobial activity against Mycobacterium tuberculosis H37Rv; assay type: functional
Quantity: MIC (µg/mL)
Could you give me the number in µg/mL? Just the number is fine.

Known results for compounds:
[
  {
    "Compound": "CCN(CC)C(=S)[S-].[Na+] [DITIOCARB SODIUM]",
    "Quantity": "MIC",
    "Result units": "µg/mL",
    "Experimental result": 4
  },
  {
    "Compound": "S=C(S)N1CCCC1 [PYRROLIDINE DITHIOCARBAMATE]",
    "Quantity": "MIC",
    "Result units": "µg/mL",
    "Experimental result": 0.125
  },
  {
    "Compound": "NNC(=O)c1ccncc1",
    "Quantity": "MIC",
    "Result units": "µg/mL",
    "Experimental result": 0.06
  }
]

For the next question, use this compound.
Lab note: CCN(CC)C(=S)SSC(=S)N(CC)CC gave MIC of 8
